# Tested on: Escherichia coli TOP10
# PROTOCOL_SUMMARY: shrunken log2 fold change of peptide-encoding DNA abundance (4.5 h post-induction vs induction); higher = less antimicrobial activity (less host growth inhibition)
# APPLIED_CONDITIONS: time post-induction: 4.5 h; library: site-saturation at positions 5, 18, 19, 20
MEASUREMENT_LABEL: shrunken log2 fold change
Quick one: just the number, no unit, thanks!

Sample records with shrunken log2 fold change:
[
  {
    "SEQUENCE_CHAIN": "RRIRTRPPRLPRPRPRPQVGPRP",
    "MEASUREMENT_LABEL": "shrunken log2 fold change",
    "RESULT_NUMBER": -0.137
  },
  {
    "SEQUENCE_CHAIN": "RRIRGRPPRLPRPRPRPYLDPRP",
    "MEASUREMENT_LABEL": "shrunken log2 fold change",
    "RESULT_NUMBER": 0.0767
  }
]

Name the reported shrunken log2 fold change value associated with the sequence "RRIRVRPPRLPRPRPRPYSDPRP"
-0.145

Name the reported shrunken log2 fold change value associated with the sequence "RRIRQRPPRLPRPRPRPPWNPRP"
0.0241

Name the reported shrunken log2 fold change value associated with the sequence "RRIRLRPPRLPRPRPRPAFRPRP"
0.0862

###

# Test system: Escherichia coli TOP10
# PROTOCOL_SUMMARY: shrunken log2 fold change of peptide-encoding DNA abundance (4.5 h post-induction vs induction); higher = less antimicrobial activity (less host growth inhibition)
# APPLIED_CONDITIONS: time post-induction: 4.5 h; library: site-saturation at positions 5, 18, 19, 20
This section presents sequences with their documented shrunken log2 fold change values.

Sample records with shrunken log2 fold change:
[
  {
    "SEQUENCE_CHAIN": "RRIRERPPRLPRPRPRPELEPRP",
    "shrunken log2 fold change": 0.276
  },
  {
    "SEQUENCE_CHAIN": "RRIRLRPPRLPRPRPRPNRDPRP",
    "shrunken log2 fold change": -0.124
  },
  {
    "SEQUENCE_CHAIN": "RRIRVRPPRLPRPRPRPGHFPRP",
    "shrunken log2 fold change": 0.136
  },
  {
    "SEQUENCE_CHAIN": "RRIRERPPRLPRPRPRPRKPPRP",
    "shrunken log2 fold change": -0.13
  },
  {
    "SEQUENCE_CHAIN": "RRIRARPPRLPRPRPRPGKTPRP",
    "shrunken log2 fold change": 0.312
  }
]

In the following, a different sequence is considered.
Name the reported shrunken log2 fold change value associated with the sequence "RRIRHRPPRLPRPRPRPRCQPRP"
0.219

###

# System: Escherichia coli TOP10
# PROTOCOL_SUMMARY: shrunken log2 fold change of peptide-encoding DNA abundance (4.5 h post-induction vs induction); higher = less antimicrobial activity (less host growth inhibition)
# APPLIED_CONDITIONS: time post-induction: 4.5 h; library: site-saturation at positions 5, 18, 19, 20
This section presents sequences with their documented shrunken log2 fold change values.
Quick one: just the number, no unit, thanks!

Sample records with shrunken log2 fold change:
[
  {
    "SEQUENCE_CHAIN": "RRIRCRPPRLPRPRPRPGAAPRP",
    "TARGET_DESC": "Escherichia coli TOP10",
    "RESULT_NUMBER": 0.956
  },
  {
    "SEQUENCE_CHAIN": "RRIRFRPPRLPRPRPRPRGDPRP",
    "TARGET_DESC": "Escherichia coli TOP10",
    "RESULT_NUMBER": 0.477
  },
  {
    "SEQUENCE_CHAIN": "RRIRKRPPRLPRPRPRPTESPRP",
    "TARGET_DESC": "Escherichia coli TOP10",
    "RESULT_NUMBER": 0.00281
  },
  {
    "SEQUENCE_CHAIN": "RRIRTRPPRLPRPRPRPKAIPRP",
    "TARGET_DESC": "Escherichia coli TOP10",
    "RESULT_NUMBER": 0.00211
  },
  {
    "SEQUENCE_CHAIN": "RRIRNRPPRLPRPRPRPPFGPRP",
    "TARGET_DESC": "Escherichia coli TOP10",
    "RESULT_NUMBER": 0.291
  }
]

In the following, a different sequence is considered.
Provide the documented shrunken log2 fold change with Escherichia coli TOP10 as the system for "RRIRPRPPRLPRPRPRPRWHPRP"
0.186

###

# Tested on: Escherichia coli TOP10
# PROTOCOL_SUMMARY: shrunken log2 fold change of peptide-encoding DNA abundance (4.5 h post-induction vs induction); higher = less antimicrobial activity (less host growth inhibition)
# APPLIED_CONDITIONS: time post-induction: 4.5 h; library: site-saturation at positions 5, 18, 19, 20
This section presents sequences with their documented shrunken log2 fold change values.
Quick one: just the number, no unit, thanks!

[
  {
    "SEQUENCE_CHAIN": "RRIRWRPPRLPRPRPRPLHPPRP",
    "shrunken log2 fold change": 0.597
  },
  {
    "SEQUENCE_CHAIN": "RRIRDRPPRLPRPRPRPNIHPRP",
    "shrunken log2 fold change": -0.214
  },
  {
    "SEQUENCE_CHAIN": "RRIRRRPPRLPRPRPRPSFCPRP",
    "shrunken log2 fold change": -0.00369
  },
  {
    "SEQUENCE_CHAIN": "RRIRCRPPRLPRPRPRPMWWPRP",
    "shrunken log2 fold change": 0.396
  },
  {
    "SEQUENCE_CHAIN": "RRIRNRPPRLPRPRPRPYIAPRP",
    "shrunken log2 fold change": -0.172
  },
  {
    "SEQUENCE_CHAIN": "RRIRYRPPRLPRPRPRPLYGPRP",
    "shrunken log2 fold change": -0.82
  },
  {
    "SEQUENCE_CHAIN": "RRIRDRPPRLPRPRPRPIIMPRP",
    "shrunken log2 fold change": -0.226
  },
  {
    "SEQUENCE_CHAIN": "RRIRYRPPRLPRPRPRPRFMPRP",
    "shrunken log2 fold change": -0.323
  },
  {
    "SEQUENCE_CHAIN": "RRIRFRPPRLPRPRPRPWQGPRP",
    "shrunken log2 fold change": 0.00425
  },
  {
    "SEQUENCE_CHAIN": "RRIRARPPRLPRPRPRPYDMPRP",
    "shrunken log2 fold change": -0.0195
  }
]

Name the reported shrunken log2 fold change value associated with the sequence "RRIRRRPPRLPRPRPRPWCKPRP"
-0.0285

Name the reported shrunken log2 fold change value associated with the sequence "RRIRQRPPRLPRPRPRPMNTPRP"
0.0106

Name the reported shrunken log2 fold change value associated with the sequence "RRIRERPPRLPRPRPRPRDHPRP"
0.162

###

# Tested on: Escherichia coli TOP10
# PROTOCOL_SUMMARY: shrunken log2 fold change of peptide-encoding DNA abundance (4.5 h post-induction vs induction); higher = less antimicrobial activity (less host growth inhibition)
# APPLIED_CONDITIONS: time post-induction: 4.5 h; library: site-saturation at positions 5, 18, 19, 20
MEASUREMENT_LABEL: shrunken log2 fold change
Quick one: just the number, no unit, thanks!

[
  {
    "SEQUENCE_CHAIN": "RRIRQRPPRLPRPRPRPELKPRP",
    "MEASUREMENT_LABEL": "shrunken log2 fold change",
    "RESULT_NUMBER": 0.0791
  },
  {
    "SEQUENCE_CHAIN": "RRIRSRPPRLPRPRPRPEPKPRP",
    "MEASUREMENT_LABEL": "shrunken log2 fold change",
    "RESULT_NUMBER": 0.954
  },
  {
    "SEQUENCE_CHAIN": "RRIRPRPPRLPRPRPRPKWPPRP",
    "MEASUREMENT_LABEL": "shrunken log2 fold change",
    "RESULT_NUMBER": -0.0466
  },
  {
    "SEQUENCE_CHAIN": "RRIRKRPPRLPRPRPRPNYWPRP",
    "MEASUREMENT_LABEL": "shrunken log2 fold change",
    "RESULT_NUMBER": 0.157
  },
  {
    "SEQUENCE_CHAIN": "RRIRCRPPRLPRPRPRPIRDPRP",
    "MEASUREMENT_LABEL": "shrunken log2 fold change",
    "RESULT_NUMBER": -0.231
  }
]

In the following, a different sequence is considered.
Name the reported shrunken log2 fold change value associated with the sequence "RRIRIRPPRLPRPRPRPPQKPRP"
0.0534

###

# Test system: Escherichia coli TOP10;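 note: peptides expressed intracellularly from a pBAD plasmid library in pooled LB shake-flask culture, induced with 0.3% L-arabinose, DNA abundance read by NGS, three biological replicates, DESeq2 with apeglm shrinkage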
# PROTOCOL_SUMMARY: shrunken log2 fold change of peptide-encoding DNA abundance (4.5 h post-induction vs induction); higher = less antimicrobial activity (less host growth inhibition)
# APPLIED_CONDITIONS: time post-induction: 4.5 h; library: site-saturation at positions 5, 18, 19, 20
If the reported shrunken log2 fold change equals or exceeds -0.06, assign criterion met. If not, assign criterion not met.

[
  {
    "SEQUENCE_CHAIN": "RRIRYRPPRLPRPRPRPWKIPRP",
    "TARGET_DESC": "Escherichia coli TOP10",
    "LABEL": "criterion not met"
  },
  {
    "SEQUENCE_CHAIN": "RRIRKRPPRLPRPRPRPEEYPRP",
    "TARGET_DESC": "Escherichia coli TOP10",
    "LABEL": "criterion met"
  },
  {
    "SEQUENCE_CHAIN": "RRIRYRPPRLPRPRPRPVQEPRP",
    "TARGET_DESC": "Escherichia coli TOP10",
    "LABEL": "criterion not met"
  },
  {
    "SEQUENCE_CHAIN": "RRIRKRPPRLPRPRPRPMMGPRP",
    "TARGET_DESC": "Escherichia coli TOP10",
    "LABEL": "criterion met"
  },
  {
    "SEQUENCE_CHAIN": "RRIRKRPPRLPRPRPRPCTFPRP",
    "TARGET_DESC": "Escherichia coli TOP10",
    "LABEL": "criterion met"
  }
]

For this sequence, is measured shrunken log2 fold change -0.06 or higher? "RRIRQRPPRLPRPRPRPIRSPRP"
criterion met

For this sequence, is measured shrunken log2 fold change -0.06 or higher? "RRIRYRPPRLPRPRPRPYQLPRP"
criterion met

For this sequence, is measured shrunken log2 fold change -0.06 or higher? "RRIRNRPPRLPRPRPRPPKYPRP"
criterion not met
